biological target: IRAK4 (Homo sapiens (Human)); experiment: IRAK4 2-hour 1 mM ATP Biochemical Assay (MesoScale Detection format); details: 100 pM IRAK4, read-out: IRAK4 IC50
property measured: IC50 (nM)
Field format: number, assumed nM, no unit text.

Worked cases, answers included:
compound | IC50 (nM)
C[C@@H]1C[C@@H]1n1cccc(NC(=O)c2cc3cn([C@@]45CC[C@@H](C4)OC5)nc3nc2OC2CC2)c1=O (single isomer, unassigned) [Example 94] | 0.6
CC(C)Oc1nc2nn(C[C@@H]3CCOC3)cc2cc1C(=O)Nc1cccn(C2CC2)c1=O | 0.4

Next:
Read off the recorded IC50 for CC(C)Oc1cc2nn([C@]34CC[C@](C)(C3)OC4)cc2cc1C(=O)Nc1cccn([C@H]2C[C@H]2F)c1=O (single isomer, unassigned)
0.1

###

experiment: Kinetic solubility assay (CLND), potassium phosphate buffer pH 6.8; assay type: physicochemical; conditions: potassium phosphate buffer, pH 6.8, aqueous buffer, kinetic from dmso stock, pH 6.8, 2% DMSO, 24 hours at ambient temperature
solubility at 24 h overview
Lab book: enter the figure in µg/mL, no units written.

Solved cases (3 shown):
compound | solubility at 24 h, µg/mL
CC(C)Oc1nc2nn(C34COC(CF)(C3)C4)cc2cc1C(=O)Nc1cccn(C2CC2)c1=O [Example 10] | 22.7
CC12CC(n3cc4cc(C(=O)Nc5cccn(C6CC6)c5=O)c(OC5CCC5)nc4n3)(CO1)C2 [Example 24] | 5.53
CC(C)Oc1cc2nn([C@@]34CC[C@@](C)(C3)OC4)cc2cc1C(=O)Nc1cccn([C@H]2C[C@H]2F)c1=O [Example 50] | 40.5

# context switch: different compound, same solubility at 24 h
Report measured solubility at 24 h; entry is C[C@]12CC[C@](n3cc4cc(C(=O)Nc5cccn(C6CC6)c5=O)c(OC5CCC5)nc4n3)(CO1)C2 [Example 7]
10.3

###

test: Kpuu assay (in vivo brain-to-plasma partition, unbound); conditions: brain (unbound) versus plasma (unbound); intravenous infusion 4 to 24 h; unbound drug partition coefficient; read-out: Brain Kpu,u
property measured: Kp
Respond with the number and no other words.

compound | Kp
CC(C)Oc1cc2nn([C@]34CC[C@](C)(C3)OC4)cc2cc1C(=O)Nc1cccn([C@H]2C[C@H]2F)c1=O (single isomer, unassigned) | 0.4
CC(C)Oc1cc2nn(C34COC(CF)(C3)C4)cc2cc1C(=O)Nc1cccn([C@@H]2C[C@H]2C)c1=O (single isomer, unassigned) | 0.7
CC(C)Oc1nc2nn(C[C@@H]3CCOC3)cc2cc1C(=O)Nc1cccn(C2CC2)c1=O | 0.4
CC(C)Oc1cc2nn([C@@]34CC[C@@](C)(C3)OC4)cc2cc1C(=O)Nc1cccn([C@@H]2C[C@H]2F)c1=O (single isomer, unassigned) | 1.3
CC(C)Oc1cc2nn([C@@]34CC[C@@](C)(C3)OC4)cc2cc1C(=O)Nc1cccn([C@H]2C[C@H]2F)c1=O | 0.4

Answer with the recorded Kp of CC(C)Oc1nc2nn([C@@]34CC[C@@](C)(C3)OC4)cc2cc1C(=O)Nc1cccn(C2CC2)c1=O (single isomer, unassigned) only.
1.6

###

assay: Kinetic solubility assay (CLND), potassium phosphate buffer pH 6.8; assay type: physicochemical; settings: potassium phosphate buffer, pH 6.8, aqueous buffer, kinetic from dmso stock, pH 6.8, 2% DMSO, 24 hours at ambient temperature
property measured: solubility at 24 h
A complete answer gives the number and then names the unit.

molecule | readout value
CC(C)Oc1cc2nn(C34COC(C3)C4)cc2cc1C(=O)Nc1cccn([C@H]2C[C@H]2C)c1=O | 55.8 µg/mL
CC12CC(n3cc4cc(C(=O)Nc5cccn([C@H]6C[C@H]6F)c5=O)c(OC5CC5)nc4n3)(CO1)C2 | 20.1 µg/mL
COCC12CC(n3cc4cc(C(=O)Nc5cccn([C@H]6C[C@H]6F)c5=O)c(OC(C)C)cc4n3)(CO1)C2 | 34 µg/mL

Provide solubility at 24 h value for the following molecule: CC(C)Oc1nc2nn(C34COC(C)(C3)C4)cc2cc1C(=O)Nc1cccn([C@H]2C[C@H]2F)c1=O (single isomer, unassigned) [Example 34]
24.9 µg/mL

Indicate the recorded solubility at 24 h value for this molecule: COCC12CC(n3cc4cc(C(=O)Nc5cccn([C@H]6C[C@H]6F)c5=O)c(OC5CC5)nc4n3)(CO1)C2 (single isomer, unassigned)
13.9 µg/mL

###

experiment: Kpuu assay (in vivo brain-to-plasma partition, unbound); settings: brain (unbound) versus plasma (unbound); intravenous infusion 4 to 24 h; unbound drug partition coefficient; read-out: Brain Kpu,u
property measured: Kp
The answer should be written as a number, with no unit following it.

molecule | readout value
COCC12CC(n3cc4cc(C(=O)Nc5cccn(C6CC6)c5=O)c(OC(C)C)nc4n3)(CO1)C2 | 0.9
CC(C)Oc1cc2nn([C@@]34CC[C@@](C)(C3)OC4)cc2cc1C(=O)Nc1cccn(C2CC2)c1=O | 0.9
CC[C@H](C)Oc1nc2nn(C34COC(C)(C3)C4)cc2cc1C(=O)Nc1cccn(C2CC2)c1=O | 0.9

Let's switch to this molecule now.
Return the recorded Kp value; entry: O=C(Nc1cccn([C@H]2C[C@H]2F)c1=O)c1cc2cn([C@]34CC[C@H](C3)OC4)nc2nc1OC1CC1 (single isomer, unassigned)
0.2

###

target: UniProtKB P08183; experiment: MDR1-MDCK assay (apparent permeability, efflux ratio); type: in vitro ADME; conditions: human, MDCK-MDR1, 1 μM, read-out: MDR1-MDCK_Efflux Ratio
property measured: efflux ratio at 120 min, 1 μM

compound | target entity | property measured | readout value
CC(C)Oc1nc2nn(C34COC(C)(C3)C4)cc2cc1C(=O)Nc1cccn([C@@H]2C[C@@H]2F)c1=O (single isomer, unassigned) [Example 33] | UniProtKB P08183 | efflux ratio at 120 min, 1 μM | 4.15
COCC12CC(n3cc4cc(C(=O)Nc5cccn([C@@H]6C[C@@H]6C)c5=O)c(OC(C)C)cc4n3)(CO1)C2 | UniProtKB P08183 | efflux ratio at 120 min, 1 μM | 1.51
CC(C)Oc1cc2nn(C34COC(CF)(C3)C4)cc2cc1C(=O)Nc1cccn([C@H]2C[C@@H]2C)c1=O (single isomer, unassigned) | UniProtKB P08183 | efflux ratio at 120 min, 1 μM | 1.59
CC[C@H](C)Oc1nc2nn(C34COC(CF)(C3)C4)cc2cc1C(=O)Nc1cccn(C2CC2)c1=O | UniProtKB P08183 | efflux ratio at 120 min, 1 μM | 3.33
COCC12CC(n3cc4cc(C(=O)Nc5cccn([C@H]6C[C@H]6F)c5=O)c(OC5CC5)nc4n3)(CO1)C2 (single isomer, unassigned) | UniProtKB P08183 | efflux ratio at 120 min, 1 μM | 18.7

Recall the reported efflux ratio at 120 min, 1 μM of CC(C)Oc1nc2nn(C34COC(C)(C3)C4)cc2cc1C(=O)Nc1cccn([C@H]2C[C@@H]2F)c1=O (single isomer, unassigned) on UniProtKB P08183 and write it down.
1.82

###

biological target: IRAK4 (Homo sapiens (Human), UniProt Q9NWZ3); assay: IRAK4 2-hour 1 mM ATP Biochemical Assay (MesoScale Detection format); conditions: 100 pM IRAK4, read-out: IRAK4 IC50
Sequence (Q9NWZ3 whole entry): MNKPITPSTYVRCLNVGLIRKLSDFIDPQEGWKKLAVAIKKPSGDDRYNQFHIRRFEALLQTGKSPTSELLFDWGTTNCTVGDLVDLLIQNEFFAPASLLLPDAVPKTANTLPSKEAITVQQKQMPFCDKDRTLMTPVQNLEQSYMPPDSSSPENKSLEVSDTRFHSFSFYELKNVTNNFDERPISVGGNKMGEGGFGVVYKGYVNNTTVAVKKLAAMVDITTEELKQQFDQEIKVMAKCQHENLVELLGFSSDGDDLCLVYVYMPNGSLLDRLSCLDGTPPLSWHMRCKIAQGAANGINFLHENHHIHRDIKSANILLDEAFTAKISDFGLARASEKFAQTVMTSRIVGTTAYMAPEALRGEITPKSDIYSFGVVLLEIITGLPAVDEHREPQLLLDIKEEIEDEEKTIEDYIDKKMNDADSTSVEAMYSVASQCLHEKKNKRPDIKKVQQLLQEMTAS
Could you please mark 1 for values of IC50 below 0.8 nM and -1 for values at or above it?

Solved entries (count: 4):
compound | category
CC(C)Oc1nc2nn(C34COC(C3)C4)cc2cc1C(=O)Nc1cccn([C@@H]2C[C@@H]2C)c1=O [Example 75] | -1
CC(C)Oc1cc2nn([C@@]34CC[C@@](C)(C3)OC4)cc2cc1C(=O)Nc1cccn(C2CC2)c1=O [Example 2] | 1
CC(C)Oc1nc2nn(C[C@H]3CCOC3)cc2cc1C(=O)Nc1cccn(C2CC2)c1=O [Example 5] | 1
CC12CC(n3cc4cc(C(=O)Nc5cccn([C@H]6C[C@H]6F)c5=O)c(OC5CC5)nc4n3)(CO1)C2 [Example 85] | 1

Next up:
Please indicate whether the reported IC50 of CC(C)Oc1cc2nn(C34COC(CF)(C3)C4)cc2cc1C(=O)Nc1cccn([C@@H]2C[C@@H]2F)c1=O [Example 53] is strictly below 0.8 nM.
-1

###

Recorded efflux ratio at 120 min, 1 μM values for a group of compounds are listed next.
biological target: MDR1 (Homo sapiens (Human), UniProt P08183); assay: MDR1-MDCK assay (apparent permeability, efflux ratio); assay type: in vitro ADME; conditions: human, MDCK-MDR1, 1 μM, read-out: MDR1-MDCK_Efflux Ratio
Sequence (P08183 whole entry): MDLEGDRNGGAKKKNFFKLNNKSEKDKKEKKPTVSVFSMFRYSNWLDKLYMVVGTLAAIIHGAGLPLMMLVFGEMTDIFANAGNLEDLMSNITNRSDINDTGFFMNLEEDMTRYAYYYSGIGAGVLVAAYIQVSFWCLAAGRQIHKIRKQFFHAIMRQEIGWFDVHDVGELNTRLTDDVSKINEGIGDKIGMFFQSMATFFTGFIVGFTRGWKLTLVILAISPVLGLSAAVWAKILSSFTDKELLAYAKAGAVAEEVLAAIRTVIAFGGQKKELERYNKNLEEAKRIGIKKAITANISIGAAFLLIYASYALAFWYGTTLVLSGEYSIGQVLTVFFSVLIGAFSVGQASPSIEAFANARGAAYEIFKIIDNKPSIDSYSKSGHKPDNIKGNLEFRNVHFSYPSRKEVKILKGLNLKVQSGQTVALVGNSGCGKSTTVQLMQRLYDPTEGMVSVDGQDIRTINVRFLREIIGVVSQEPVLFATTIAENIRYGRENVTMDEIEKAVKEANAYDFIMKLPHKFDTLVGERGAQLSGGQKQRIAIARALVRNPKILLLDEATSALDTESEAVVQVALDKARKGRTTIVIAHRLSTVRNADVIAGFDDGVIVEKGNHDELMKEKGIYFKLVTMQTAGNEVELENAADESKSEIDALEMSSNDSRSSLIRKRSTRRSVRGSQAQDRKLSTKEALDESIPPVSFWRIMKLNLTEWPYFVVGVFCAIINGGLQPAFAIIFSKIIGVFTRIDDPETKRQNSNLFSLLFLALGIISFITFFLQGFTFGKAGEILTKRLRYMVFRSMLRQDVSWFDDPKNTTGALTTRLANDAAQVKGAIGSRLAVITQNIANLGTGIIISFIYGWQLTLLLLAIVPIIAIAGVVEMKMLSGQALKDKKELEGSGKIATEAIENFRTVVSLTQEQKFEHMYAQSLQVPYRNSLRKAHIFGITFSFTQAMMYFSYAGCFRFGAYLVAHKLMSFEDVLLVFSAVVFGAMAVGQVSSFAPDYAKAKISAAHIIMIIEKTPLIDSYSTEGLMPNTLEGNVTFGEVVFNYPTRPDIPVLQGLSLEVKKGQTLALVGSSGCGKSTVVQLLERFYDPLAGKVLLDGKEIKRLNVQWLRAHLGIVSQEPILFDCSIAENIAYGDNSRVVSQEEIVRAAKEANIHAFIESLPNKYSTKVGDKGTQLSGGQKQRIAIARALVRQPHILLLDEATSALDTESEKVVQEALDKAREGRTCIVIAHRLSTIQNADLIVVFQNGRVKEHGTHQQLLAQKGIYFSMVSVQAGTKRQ
Lab note: record just the number, no unit beside it.

compound | efflux ratio at 120 min, 1 μM
COCC12CC(n3cc4cc(C(=O)Nc5cccn([C@@H]6C[C@H]6F)c5=O)c(OC5CCC5)cc4n3)(CO1)C2 | 2.39
C[C@@]12CC[C@@](n3cc4cc(C(=O)Nc5cccn(C6CC6)c5=O)c(OC5CCC5)cc4n3)(CO1)C2 (single isomer, unassigned) | 1.32
CC(C)Oc1cc2nn(C34COC(C)(C3)C4)cc2cc1C(=O)Nc1ccnn(C2CC2)c1=O | 0.73

Next compound, please.
Identify measured efflux ratio at 120 min, 1 μM corresponding to CC(C)Oc1nc2nn(C34COC(C)(C3)C4)cc2cc1C(=O)Nc1cccn([C@@H]2C[C@@H]2F)c1=O [Example 83]
4.48
